Experimental Details: Cytotoxicity against human Huh-7 cells incubated for 3 days by XTT assay
Assay type: toxicity, cell-based
Condition Parameters: time 3 day
Experimental Endpoint: CC50 at 72 h (µM)

cpd_smiles=COc1ccc(S(=O)(=O)O)cc1/N=N/c1c(S(=O)(=O)O)cc2cc(Nc3nc(Nc4ccccc4)nc(Nc4cc(C)c(/N=N/c5cc(S(=O)(=O)O)cc6cc(S(=O)(=O)O)cc(O)c56)cc4OC)n3)ccc2c1O experimental_endpoint="CC50 at 72 h" unit=µM val=26.9

====

Experimental Details: Selectivity index. ratio of CC50 for cytotoxicity against human Huh-7 cells to IC50 for antiviral activity against MERS-CoV pseudovirus infected in Huh-7
Format: toxicity, cell-based
Condition Parameters: read-out: Ratio CC50/IC50
Experimental Endpoint: selectivity ratio

cpd_smiles=COc1ccc(S(=O)(=O)O)cc1/N=N/c1c(S(=O)(=O)O)cc2cc(Nc3nc(Nc4ccccc4)nc(Nc4cc(C)c(/N=N/c5cc(S(=O)(=O)O)cc6cc(S(=O)(=O)O)cc(O)c56)cc4OC)n3)ccc2c1O experimental_endpoint="selectivity ratio" val=45
